# Tested on: RPMI-8226 leukemia
# test: NCI tumour cell line growth inhibition, 48 h
experimental readout: TGI

1. O=C1CCC(N2C(=O)c3cccc(NCCCC4CCN(CCNC(=O)c5cc6c(o5)C(=O)c5ccccc5C6=O)CC4)c3C2=O)C(=O)N1 (stereo not drawn)	20.9 µM
2. Nc1ccc(C(=O)NN2C(=O)C(Cl)C2c2cccc(O)c2)cc1 (stereo not drawn)	41.7 µM
3. O=C1NC2CCCCC2N=C1/C(C(=O)c1ccccc1)=C(\O)c1ccccc1 (stereo not drawn)	> 100 µM
4. Cc1nc2ccccc2c(=O)n1/N=C(\N=Nc1cccc(Cl)c1)c1ccccc1Cl	> 100 µM
5. COc1cc(OC)cc(-n2c(N)c(-c3nc4ccccc4n3C)c3ccc([N+](=O)[O-])cc3c2=O)c1	> 100 µM
6. COc1cc(/C=C\c2ccncc2)cc(OC)c1OC	> 100 µM
7. O=c1c(-c2ccccc2)coc2cc(OC/C(=N/O)c3ccc(F)cc3)ccc12	59.7 µM
8. CN(/N=N/c1nc[nH]c1C(N)=O)C1CCCCC1	> 100 µM
9. N.N.N.N.N.O=S(=O)([O-])C(F)(F)F.O=S(=O)([O-])C(F)(F)F.[Os+8]	> 100 µM
10. OCc1ccc(N2CCCC2)cc1Cl	> 84.5 µM
11. Nc1n[nH]c(N)c1N=Nc1ccc(O)cc1	54.3 µM
12. CCN(CC)CCCC(C)Nc1c(Sc2cnc3cc(Cl)ccc3c2NC(C)CCCN(CC)CC)cnc2cc(Cl)ccc12 (stereo not drawn)	4.55 µM
13. CCCCc1ccc(-n2sc3ncccc3c2=O)cc1	> 100 µM
14. O=C1CSC(c2ccccc2O)N1c1nnc(Cn2ccnc2)o1 (stereo not drawn)	24.4 µM
15. Cc1ccc(Sc2oc(-c3ccc(C)cc3)nc2[P+](c2ccccc2)(c2ccccc2)c2ccccc2)cc1	1.35 µM
16. COC(=O)/C(=C\c1ccco1)P(=O)(OC)OC	> 100 µM
17. CCOC(=O)c1c(N2CCOCC2)[nH]c(=O)c(C(c2cccs2)c2c(O)c(C(=O)OCC)c(N3CCOCC3)[nH]c2=O)c1O	> 100 µM
18. COc1ccc(-c2onc(-c3c(C)cc(C)cc3C)c2C2=NCCN2)cc1	> 100 µM
